Format: in vitro ADME
measurement-context: female, CD1, mouse, 0.5 μM, pH 7.4
class 1 if Microsomal Cli, mouse is below 3 mL/min/g. class 0 if not; exact matches included in class 0.

Completed entries (count: 8):
O=C(CSc1nc2ccccc2c(=O)[nH]1)NC1CCCCC1(F)F (stereo not drawn) [Compound 8] | class 1
O=C(CSc1nc2ccccc2c(=O)[nH]1)NC1CCCC1 [Compound 5] | class 1
O=C(CSc1nc2ccccc2c(=O)[nH]1)NCC1CCCCC1 [Compound 10] | class 0
O=C(CSc1nc2ccc(F)cc2c(=O)[nH]1)NC1CCC(F)(F)CC1 [Compound 26] | class 1
CN(C(=O)CSc1nc2ccccc2c(=O)[nH]1)C1CCCCC1 [Compound 14] | class 0
O=C(CSc1nc2ccccc2c(=O)[nH]1)NC1CCCC(F)(F)C1 (stereo not drawn) [Compound 9] | class 1
O=C(CSc1nc2ccccc2c(=O)[nH]1)NC1CCC1 [Compound 6] | class 1
O=C(CSc1nc2c(c(=O)[nH]1)CCCC2)NC1CCCCC1 [Compound 23] | class 0

// switching to the query molecule
Please indicate whether the reported Microsomal Cli, mouse of Cn1c(SCC(=O)NC2CCCCC2)nc2ccccc2c1=O [Compound 20] is strictly below 3 mL/min/g.
class 0

---

test-name: physchem
Format: physicochemical
measurement-context: pH 7.4
Form field: chromatographic logD (one value per entry).
# respond with the number and nothing more

Solved entries (count: 3):
O=C(CSc1nc2ccccc2c(=O)[nH]1)NCc1ccccc1 | 1.5
O=C(CSc1nc2ccccc2c(=O)[nH]1)NC1CCC(F)(F)CC1 | 1.5
O=C(CSc1nc2ccccc2c(=O)[nH]1)NC1CCCCC1 | 1.8

Proceed to the following item.
Data point: O=C(CSc1nc2ccccc2c(=O)[nH]1)NCC1CCC(F)(F)CC1 ; chromatographic logD = 1.6

---

Type: in vitro ADME
measurement-context: female, CD1, mouse, 0.5 μM, pH 7.4
recorded-endpoint: Microsomal Cli, mouse (mL/min/g)
Respond numerically; units are mL/min/g and should not be typed.

Solved entries (count: 3):
CC(Sc1nc2ccccc2c(=O)[nH]1)C(=O)NC1CCCCC1 (stereo not drawn) | 7.5
CC(Sc1nc2ccccc2c(=O)[nH]1)C(=O)N(C)C1CCCCC1 (stereo not drawn) | 50
O=C(CSc1nc2ccccc2c(=O)[nH]1)NC1CCCCCC1 | 6.4

Data point: O=C(CNc1nc2ccccc2c(=O)[nH]1)NC1CCCCC1 ; Microsomal Cli, mouse = 2.1

---

test-name: Mouse pharmacokinetics
Type: in vivo, female C57Bl/6 mice
measurement-context: female, C57Bl/6, whole blood; C57 mouse PK at 3 iv and 10 po (mg/kg); 1 free base, 7 HCl salt
recorded-endpoint: half-life (h)
Respond numerically; units are h and should not be typed.

O=C(CSc1nc2ccccc2c(=O)[nH]1)NC1CCC(F)(F)CC1 | 1.3

Proceed to the following item.
Data point: O=C(CSc1nc2ccccc2c(=O)[nH]1)NC1CCCCC1 ; half-life = 1.5

---

Form field: Cmax (one value per entry).
test-name: Mouse pharmacokinetics
Format: in vivo, female C57Bl/6 mice
measurement-context: female, C57Bl/6, mouse, in vivo, po, 10 mg/kg
Respond numerically; units are ng/mL and should not be typed.

Solved entries (count: 2):
O=C(CSc1nc2ccccc2c(=O)[nH]1)NC1CCCCC1 | 748
O=C(CSc1nc2ccccc2c(=O)[nH]1)NCC1CCC(F)(F)CC1 | 1110

Proceed to the following item.
Data point: O=C(CSc1nc2ccccc2c(=O)[nH]1)NC1CCC(F)(F)CC1 ; Cmax = 399
